Assay: Genotype specific clearance of siponimod from PopPK analysis
Settings: human, plasma, CYP2C9*1/*3
readout: clearance
Hey, just the number and the unit after it is fine.

clearance recorded for this molecule, CCc1cc(/C(C)=N/OCc2ccc(C3CCCCC3)c(C(F)(F)F)c2)ccc1CN1CC(C(=O)O)C1 , is 33.8 mL/min

----------
System: CYP2C9
Assay: CYP2C9 intrinsic clearance calculated from PopPK genotype specific clearance (SimCYP V16)
Design: species or system human
Conditions: human, plasma, oral, CYP2C9*3/*3; total CLp - total CLp*0.207; read-out: CL driven by CYP2C9 (converted)
readout: clearance (mL/min)
One number for each entry, in mL/min.

The reported clearance of the compound CCc1cc(/C(C)=N/OCc2ccc(C3CCCCC3)c(C(F)(F)F)c2)ccc1CN1CC(C(=O)O)C1 [siponimod, Siponimod] was 2.76

These data points were gathered from paper PMC5849655.
